// % Activation lookup, one value per entry
- measurement.target: ΔF508-CFTR (Homo sapiens, UniProt P13569, DEL508-508)
- Construct: host or cells: CFBE41o-, doxycycline-inducible
- Sequence (P13569 with tags, fused parts or gaps DEL508-508): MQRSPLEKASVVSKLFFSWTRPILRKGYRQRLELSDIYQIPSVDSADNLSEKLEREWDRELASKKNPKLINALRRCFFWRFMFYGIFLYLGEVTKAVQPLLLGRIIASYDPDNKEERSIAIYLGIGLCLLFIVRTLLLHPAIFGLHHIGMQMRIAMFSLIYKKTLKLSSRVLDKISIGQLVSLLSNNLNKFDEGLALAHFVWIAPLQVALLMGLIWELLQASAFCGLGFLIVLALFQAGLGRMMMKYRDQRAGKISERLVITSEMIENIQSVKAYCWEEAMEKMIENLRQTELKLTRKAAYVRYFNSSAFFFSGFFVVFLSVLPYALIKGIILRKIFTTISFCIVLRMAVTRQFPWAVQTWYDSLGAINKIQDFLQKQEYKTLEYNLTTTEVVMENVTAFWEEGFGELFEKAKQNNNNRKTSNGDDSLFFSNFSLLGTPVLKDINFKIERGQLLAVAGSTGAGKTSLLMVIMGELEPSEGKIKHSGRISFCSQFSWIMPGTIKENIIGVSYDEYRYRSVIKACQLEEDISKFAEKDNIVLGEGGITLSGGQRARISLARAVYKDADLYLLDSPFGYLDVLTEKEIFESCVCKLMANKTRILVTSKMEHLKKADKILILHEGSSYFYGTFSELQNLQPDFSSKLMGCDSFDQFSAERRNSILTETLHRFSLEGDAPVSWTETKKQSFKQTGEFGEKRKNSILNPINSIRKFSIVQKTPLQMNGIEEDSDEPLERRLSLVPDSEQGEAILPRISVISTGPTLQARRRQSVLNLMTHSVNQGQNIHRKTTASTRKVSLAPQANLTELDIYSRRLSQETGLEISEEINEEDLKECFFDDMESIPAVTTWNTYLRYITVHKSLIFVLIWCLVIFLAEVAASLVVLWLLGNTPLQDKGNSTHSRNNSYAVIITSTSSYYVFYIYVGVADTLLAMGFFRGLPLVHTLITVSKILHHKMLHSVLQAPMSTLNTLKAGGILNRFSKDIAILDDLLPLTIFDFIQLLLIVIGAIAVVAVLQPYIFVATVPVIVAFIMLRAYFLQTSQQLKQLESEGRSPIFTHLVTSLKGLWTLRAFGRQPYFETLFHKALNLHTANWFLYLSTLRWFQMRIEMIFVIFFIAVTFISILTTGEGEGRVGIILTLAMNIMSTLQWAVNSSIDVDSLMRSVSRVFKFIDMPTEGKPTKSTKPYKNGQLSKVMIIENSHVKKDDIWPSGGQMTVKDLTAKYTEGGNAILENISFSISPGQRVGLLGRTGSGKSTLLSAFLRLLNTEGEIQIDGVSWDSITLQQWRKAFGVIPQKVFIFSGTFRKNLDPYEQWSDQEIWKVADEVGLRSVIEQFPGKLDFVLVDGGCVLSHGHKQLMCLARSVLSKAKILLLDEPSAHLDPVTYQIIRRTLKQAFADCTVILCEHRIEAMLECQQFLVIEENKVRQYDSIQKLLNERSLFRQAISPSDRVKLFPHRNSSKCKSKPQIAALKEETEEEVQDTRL
- protocol.text: CFTR cell surface levels using HRP-tagged ΔF508-CFTR expressing CFBE cells, intrinsic corrector capacity
- Format: cell-based
- Set-up: concentration or dose not given beside the values
- cond: HRP-tagged ΔF508-CFTR expressing CFBE41o- cells; compound alone (intrinsic corrector capacity); 20 hours at 33° C.
measured.quantity: % Activation

molecule=CN(C)S(=O)(=O)NC(=O)c1cc(N2CCC(CN3CCCC3)CC2)c2c(C3CCC3)nn(-c3ccc(F)cc3)c2n1 measured_result=193.6%
molecule=CC1(COc2cc(C(=O)NS(C)(=O)=O)nc3c2c(C2CCC2)nn3-c2ccccc2)COC1 measured_result=117.5%
molecule=CS(=O)(=O)NC(=O)c1cc(N2CCC(N3CCOCC3)CC2)c2c(C3CCC3)nn(-c3ccnc(C4CCOCC4)c3)c2n1 measured_result=139.7%
molecule=CCCN(C)S(=O)(=O)NC(=O)c1cc(N2CCC(N3CCN(C4CC4)CC3)CC2)c2c(C3CCC3)nn(-c3ccccc3)c2n1 measured_result=269.45%
molecule=CCS(=O)(=O)N(C)C(=O)c1cc(N2CCC(CN3CCCC3)CC2)c2c(C3CCC3)nn(-c3ccccc3)c2n1 measured_result=96.44%
molecule=CS(=O)(=O)NC(=O)c1cc(OCC2CCOCC2)c2c(C3CCC3)nn(-c3ccc(F)cc3)c2n1 measured_result=183.45%
molecule="CN(C)S(=O)(=O)NC(=O)c1cc(N2CCC(N3CC4CC3CO4)CC2)c2c(C3CCC3)nn(-c3ccc(F)cc3)c2n1 (stereo not shown)" measured_result=151.95%
